- study-target: Fibroblast growth factor receptor 1 (Homo sapiens); further: in the data inactive means no Kd found up to 30 µM
- Sequence (P11362 whole entry): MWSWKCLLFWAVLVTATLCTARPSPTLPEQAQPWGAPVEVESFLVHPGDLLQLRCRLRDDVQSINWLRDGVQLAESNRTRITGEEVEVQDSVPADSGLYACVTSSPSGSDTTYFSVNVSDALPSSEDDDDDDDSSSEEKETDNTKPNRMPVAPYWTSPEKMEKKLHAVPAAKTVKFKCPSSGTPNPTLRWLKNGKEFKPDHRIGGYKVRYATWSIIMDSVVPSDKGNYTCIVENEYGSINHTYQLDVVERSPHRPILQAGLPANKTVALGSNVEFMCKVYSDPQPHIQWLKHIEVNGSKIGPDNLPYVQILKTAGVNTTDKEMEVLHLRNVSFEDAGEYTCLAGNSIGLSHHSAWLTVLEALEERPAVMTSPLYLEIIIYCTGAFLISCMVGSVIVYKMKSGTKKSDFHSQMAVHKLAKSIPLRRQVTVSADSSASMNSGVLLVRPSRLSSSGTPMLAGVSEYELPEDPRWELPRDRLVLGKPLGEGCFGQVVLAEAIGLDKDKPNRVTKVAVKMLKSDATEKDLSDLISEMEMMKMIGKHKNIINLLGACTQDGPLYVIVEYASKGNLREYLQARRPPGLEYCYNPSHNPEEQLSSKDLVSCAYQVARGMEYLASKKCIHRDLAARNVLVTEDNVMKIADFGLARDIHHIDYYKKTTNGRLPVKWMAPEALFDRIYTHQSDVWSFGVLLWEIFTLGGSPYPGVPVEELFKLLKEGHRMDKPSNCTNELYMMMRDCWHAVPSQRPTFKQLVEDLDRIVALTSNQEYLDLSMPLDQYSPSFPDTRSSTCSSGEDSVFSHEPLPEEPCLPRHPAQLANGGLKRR
Active and inactive are the calls of the source.
A correct response names exactly one class from TRUE (active), FALSE (inactive)

Give the logged outcome of this assay for the following molecule: `CC(C)Nc1cc(-c2c[nH]c(C(=O)N[C@H](CO)c3cccc(Cl)c3)c2)c(Cl)cn1`
FALSE

----------
- study-target: Dual specificity mitogen-activated protein kinase kinase 5 (Homo sapiens, UniProt Q13163); further: in the data inactive means no Kd found up to 30 µM
- Sequence (Q13163 whole entry): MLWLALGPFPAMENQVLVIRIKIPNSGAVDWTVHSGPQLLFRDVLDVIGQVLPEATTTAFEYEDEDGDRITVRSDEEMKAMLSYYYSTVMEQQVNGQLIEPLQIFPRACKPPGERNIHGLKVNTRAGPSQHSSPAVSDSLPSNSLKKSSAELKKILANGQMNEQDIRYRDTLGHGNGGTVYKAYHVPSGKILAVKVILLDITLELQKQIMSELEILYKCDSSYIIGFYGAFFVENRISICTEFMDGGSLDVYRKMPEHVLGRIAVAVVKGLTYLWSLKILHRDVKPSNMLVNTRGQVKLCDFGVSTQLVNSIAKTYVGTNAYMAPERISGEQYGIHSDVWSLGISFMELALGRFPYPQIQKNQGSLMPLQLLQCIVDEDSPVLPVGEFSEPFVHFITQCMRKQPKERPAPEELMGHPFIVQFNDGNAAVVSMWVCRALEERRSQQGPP
Active and inactive are the calls of the source.
A correct response names exactly one class from active, inactive

- molecule: "CNC(=O)CN1CCC(Oc2cc3c(Nc4cccc(Cl)c4F)ncnc3cc2OC)CC1"
  study-target: "Dual specificity mitogen-activated protein kinase kinase 5 (Homo sapiens, UniProt Q13163)"
  group-label: "inactive"

Give the logged outcome of this assay for the following molecule: `CCc1cnn2c(NCc3ccc[n+]([O-])c3)cc(N3CCCC[C@H]3CCO)nc12`
inactive

Do the same for `COc1ccc(-c2ccc3c(N4CCOC[C@@H]4C)nc(N4CCOC[C@@H]4C)nc3n2)cc1CO` please
inactive

Do the same for `CC[C@@H]1C(=O)N(C)c2cnc(Nc3ccc(C(=O)N[C@H]4CC[C@H](N5CCN(CC6CC6)CC5)CC4)cc3OC)nc2N1C(C)C` please
inactive

Do the same for `Cc1cc(-c2cc(O)ccc2Cl)cc2nnc(Nc3ccc(OCCN4CCCC4)cc3)nc12` please
inactive

Do the same for `CNS(=O)(=O)Nc1nccc(Cc2c(C)c3ccc(Oc4ncccn4)cc3oc2=O)c1F` please
active

Do the same for COC(=O)[C@@]1(O)C[C@H]2O[C@]1(C)n1c3ccccc3c3c4c(c5c6ccccc6n2c5c31)C(=O)NC4 [K-252A] please
active

Do the same for `COc1cc(N2CCC(N3CCN(C)CC3)CC2)ccc1Nc1ncnc(Nc2ccccc2S(=O)(=O)C(C)C)n1` please
inactive

Do the same for `CCS(=O)(=O)N1CC(CC#N)(n2cc(-c3ncnc4[nH]ccc34)cn2)C1` please
inactive

----------
- study-target: Uncharacterized protein FLJ45252 (Homo sapiens); further: in the data inactive means no Kd found up to 30 µM
- Sequence (Q6ZSR9 whole entry): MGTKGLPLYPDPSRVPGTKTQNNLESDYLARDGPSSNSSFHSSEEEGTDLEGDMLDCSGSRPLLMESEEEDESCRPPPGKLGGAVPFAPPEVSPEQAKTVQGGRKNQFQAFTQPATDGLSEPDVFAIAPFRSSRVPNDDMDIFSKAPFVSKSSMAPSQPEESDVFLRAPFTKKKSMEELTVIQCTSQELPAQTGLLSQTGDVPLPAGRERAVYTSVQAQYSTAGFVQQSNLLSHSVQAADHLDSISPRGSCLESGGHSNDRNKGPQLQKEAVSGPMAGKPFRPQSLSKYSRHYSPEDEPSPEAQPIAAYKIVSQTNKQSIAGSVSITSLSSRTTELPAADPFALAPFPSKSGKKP
- assay-setup: read-out: Kd apparent; k-562, colo 205, sk-n-be(2) and mv-4-11
The source made the active and inactive calls. Rule as the data show it: actives have a measured Kd and inactives only a lower limit.
A correct response names exactly one class from T = active, F = inactive

Worked examples follow.
- structure-as-smiles: "OCCn1cc(-c2cnc3nnn(Cc4ccc5ncccc5c4)c3n2)cn1"
  group-label: "F"
- structure-as-smiles: "C1=C/COCc2cc(ccc2OCCN2CCCC2)Nc2nccc(n2)-c2cccc(c2)COC/1"
  group-label: "T"

# ---- query molecule ----
Give the logged outcome of this assay for the following molecule: `CCn1c(=O)c(-c2cc[nH]n2)cc2c(C)nc(N)nc21`
F

Data provenance: ChEMBL document CHEMBL3991601
